Measured values drawn from the supplement of paper PMC4862054 for this set.

Test system: CAL-120
assay: normalised response (% of control), CellTiter-Glo; higher = more viable cells (100 = DMSO, 0 = benzethonium chloride kill control)
test.conditions: incubation time: 72 h
result.type: normalised response (%)
Dear colleague, please return just the value in %, with no unit written.

Example results:
compound="S=P(N1CC1)(N1CC1)N1CC1 [Thio-TEPA] (5000 nM)" result_type="normalised response" test_result=96.5
compound="Nc1cc(C(F)(F)F)c(-c2cc(N3CCOCC3)nc(N3CCOCC3)n2)cn1 [Buparlisib] (1 nM)" result_type="normalised response" test_result=103
compound="Cc1[nH]c2ccccc2c1CCNCc1ccc(/C=C/C(=O)NO)cc1 [Panobinostat] (100 nM)" result_type="normalised response" test_result=41.5
compound="Nc1cc(C(F)(F)F)c(-c2cc(N3CCOCC3)nc(N3CCOCC3)n2)cn1 [Buparlisib] (10 nM)" result_type="normalised response" test_result=104

What normalised response value was documented for this compound, COc1cc2/c(=N/c3ccc(Br)cc3F)nc[nH]c2cc1OCC1CCN(C)CC1 [Vandetanib] (100 nM) ?
94.4
